Would you mind telling me the reported selectivity ratio of each entry?
assay text: Selectivity index, ratio of IC50 for African green monkey Vero cells to MIC for Mycobacterium abscessus CIP104536
Format: toxicity
test context: read-out: Selectivity Index

(Q) Report selectivity ratio, nothing else, for this compound: O=C(NC1CCC2(CCCCC2)CC1)c1cc2c(Cl)cc(Cl)cc2[nH]1
(A) ≥ 2

(Q) Report selectivity ratio, nothing else, for this compound: C[C@@H]1[C@@H](NC(=O)c2cc3c(Cl)cc(Cl)cc3[nH]2)C[C@H]2C[C@@H]1C2(C)C
(A) 0.125

(Q) Report selectivity ratio, nothing else, for this compound: O=C(NC1CCCCCC1)c1cc2ccc(Br)cc2[nH]1
(A) ≥ 512

(Q) Report selectivity ratio, nothing else, for this compound: O=C(NC12CC3CC(CC(C3)C1)C2)c1cc2ccc(Br)cc2[nH]1
(A) ≥ 4

(Q) Report selectivity ratio, nothing else, for this compound: Cc1cc(C)c2cc(C(=O)NC3CCCCCC3)[nH]c2c1
(A) 128

(Q) Report selectivity ratio, nothing else, for this compound: O=C(NC12CC3CC(CC(C3)C1)C2)c1cc2c(Cl)cc(Cl)cc2[nH]1
(A) ≥ 1

* * *

Would you mind telling me the reported MIC of each entry?
Test system: Mycobacteroides abscessus
assay text: Antibacterial activity against Mycobacterium abscessus CIP104536 after 3 to 5 days by two fold serial dilution method
Assay type: functional

(Q) Report MIC, nothing else, for this compound: CC1(C)C2CC[C@@]1(C)C(NC(=O)c1cc3c(Cl)cc(Cl)cc3[nH]1)C2 (stereo partly drawn)
(A) > 32 µg/mL

(Q) Report MIC, nothing else, for this compound: O=C(NC1CCC2(CCCCC2)CC1)c1cc2c(Cl)cc(Cl)cc2[nH]1
(A) > 32 µg/mL

(Q) Report MIC, nothing else, for this compound: CC(C)=CCC/C(C)=C/CNC(=O)c1cc2c(Cl)cc(Cl)cc2[nH]1
(A) > 32 µg/mL

Measured values drawn from ChEMBL document CHEMBL4014347 for this set.
